- targetDesc: T1, CD226 (human) (UniProt Q15762)
- T1 sequence: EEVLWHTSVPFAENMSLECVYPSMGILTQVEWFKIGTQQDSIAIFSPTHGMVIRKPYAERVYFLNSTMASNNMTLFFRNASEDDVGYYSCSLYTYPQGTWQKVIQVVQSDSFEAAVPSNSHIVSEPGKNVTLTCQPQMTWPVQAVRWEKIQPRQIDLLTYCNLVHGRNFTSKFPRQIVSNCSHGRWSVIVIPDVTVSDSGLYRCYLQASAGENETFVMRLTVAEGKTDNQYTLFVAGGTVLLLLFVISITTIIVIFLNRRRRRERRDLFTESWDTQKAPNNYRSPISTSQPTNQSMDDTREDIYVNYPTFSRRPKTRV
- assayNotes: flow cytometry, CD226-expressing cells
metricName: MFI at 11.1 nM (MFI)
Kindly answer with a numeric value in MFI, unit omitted.

{"binder": "CD155 variant IgV-Fc P18T, D23G, S24A, N35D, H49L, L79P, F91S, L104M, G111R (Fc fusion, not shown: a dimerising Fc or GST; small tags and cut ends) PGTGDVVVQAPTQVTGFLGGAVTLPCYLQVPDMEVTHVSQLTWARLGESGSMAVFHQTQGPSYSESKRLEFVAARPGAELRNASLRMSGLRVEDEGNYTCMFVTFPQRSRSVDIWL", "MFI at 11.1 nM, MFI": 987}

Now look at this entry.
Task item: Give its MFI at 11.1 nM value. Item: CD155 variant IgV-Fc V11A, P18S, L79P, F91S, L104M, G111R (Fc fusion, not shown: a dimerising Fc or GST; small tags and cut ends) PGTGDVVAQAPTQVSGFLGDSVTLPCYLQVPNMEVTHVSQLTWARHGESGSMAVFHQTQGPSYSESKRLEFVAARPGAELRNASLRMSGLRVEDEGNYTCMFVTFPQRSRSVDIWL
Reply: 974
